B1: PTPN9 (parent)
chain: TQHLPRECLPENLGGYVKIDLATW

Variants of: B1
Experiment: protein stability index of a GFP-peptide fusion (GPS, HEK-293T) (PSI 1-6); higher = more stable;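 note: lentivirally expressed fusions sorted by FACS into six bins by GFP to DsRed ratio, PSI derived from sequencing read proportions per bin multiplied by bin number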
Conditions: c terminus: a fixed tail appended
Rule: protein stability index under 2 gives Criterion not met, otherwise Criterion met.

>>> answer_label("TQHLPRECLGENLGGYVKIDLATW [P10G]")
"Criterion not met"
>>> answer_label("TQHLPRECLPPNLGGYVKIDLATW [E11P]")
"Criterion not met"
>>> answer_label("TQLLPRECLPENLGGYVKIDLATW [H3L]")
"Criterion not met"
>>> answer_label("TQHLPRECLPENLGGYWKIDLATW [V17W]")
"Criterion not met"
>>> answer_label("TQHWPRECLPENLGGYVKIDLATW [L4W]")
"Criterion met"
>>> answer_label("TQHLPRETLPENLGGYVKIDLATW [C8T]")
"Criterion met"
>>> answer_label("TQHLPVECLPENLGGYVKIDLATW [R6V]")
"Criterion met"
>>> answer_label("TQHLPRECLPENLGGYVVIDLATW [K18V]")
"Criterion met"
>>> answer_label("TQHLPRECLPGNLGGYVKIDLATW [E11G]")
"Criterion not met"
>>> answer_label("TQELPRECLPENLGGYVKIDLATW [H3E]")
"Criterion met"
>>> answer_label("TQHLPREDLPENLGGYVKIDLATW [C8D]")
"Criterion met"
>>> answer_label("TQHLPRECLPEELGGYVKIDLATW [N12E]")
"Criterion met"
>>> answer_label("TQHLPRECLPENCGGYVKIDLATW [L13C]")
"Criterion not met"
>>> answer_label("TQHSPRECLPENLGGYVKIDLATW [L4S]")
"Criterion not met"
>>> answer_label("TQHLPRECLPENLGGYVKIDRATW [L21R]")
"Criterion met"
>>> answer_label("TQHLPRECLPEILGGYVKIDLATW [N12I]")
"Criterion not met"
>>> answer_label("TQHLPRECLPENLGGYVKIDLATG [W24G]")
"Criterion met"
>>> answer_label("TQHLPRECLPYNLGGYVKIDLATW [E11Y]")
"Criterion not met"
>>> answer_label("TQHLPRECLPENLGGYVKCDLATW [I19C]")
"Criterion met"
>>> answer_label("TQHLPRECLPENLGGYVKIDLAKW [T23K]")
"Criterion met"
>>> answer_label("TQHLPRECLPENLGGYVKVDLATW [I19V]")
"Criterion met"
>>> answer_label("TQHLPREMLPENLGGYVKIDLATW [C8M]")
"Criterion not met"
>>> answer_label("TQHLPRECLPENLGGTVKIDLATW [Y16T]")
"Criterion met"
>>> answer_label("HQHLPRECLPENLGGYVKIDLATW [T1H]")
"Criterion met"
>>> answer_label("TQHLPRECLPENLLGYVKIDLATW [G14L]")
"Criterion not met"
>>> answer_label("TQHLPRLCLPENLGGYVKIDLATW [E7L]")
"Criterion met"
>>> answer_label("TQHLPRECLPENLGGYVKIDLATF [W24F]")
"Criterion not met"
>>> answer_label("TQHLPRECLPENLGGYVKIDLATC [W24C]")
"Criterion met"
>>> answer_label("TQHLPRECLPENLHGYVKIDLATW [G14H]")
"Criterion not met"
>>> answer_label("TQHLPRECLPENLGIYVKIDLATW [G15I]")
"Criterion met"
>>> answer_label("TQHLLRECLPENLGGYVKIDLATW [P5L]")
"Criterion met"
>>> answer_label("TQHLPRECLPENLGGYVKIDAATW [L21A]")
"Criterion met"
>>> answer_label("TQHLPRECLPENLGDYVKIDLATW [G15D]")
"Criterion met"
>>> answer_label("TVHLPRECLPENLGGYVKIDLATW [Q2V]")
"Criterion not met"
>>> answer_label("TQHLPRECLPENLFGYVKIDLATW [G14F]")
"Criterion not met"
>>> answer_label("TQHLPRECLPENLGGYTKIDLATW [V17T]")
"Criterion met"
>>> answer_label("VQHLPRECLPENLGGYVKIDLATW [T1V]")
"Criterion not met"
>>> answer_label("TQHLPRECLPENLGGYVKIALATW [D20A]")
"Criterion met"
>>> answer_label("TQHLPRECLPENLGGYVKLDLATW [I19L]")
"Criterion met"
>>> answer_label("RQHLPRECLPENLGGYVKIDLATW [T1R]")
"Criterion met"
>>> answer_label("TQHLPRECLPENLGGYVKIDLMTW [A22M]")
"Criterion not met"
>>> answer_label("TQHLPRECLPEFLGGYVKIDLATW [N12F]")
"Criterion not met"
>>> answer_label("TQHLPRECLPENLGGYVKIDLAQW [T23Q]")
"Criterion met"
>>> answer_label("TQHLPRERLPENLGGYVKIDLATW [C8R]")
"Criterion not met"
>>> answer_label("TQHLPRECLPENLGGYVKICLATW [D20C]")
"Criterion not met"
>>> answer_label("TQHLPRECLPENLGGYVKIQLATW [D20Q]")
"Criterion not met"
>>> answer_label("TQALPRECLPENLGGYVKIDLATW [H3A]")
"Criterion not met"
>>> answer_label("TQHLPRECLAENLGGYVKIDLATW [P10A]")
"Criterion not met"
>>> answer_label("TQHLPRECLPENLGKYVKIDLATW [G15K]")
"Criterion met"
>>> answer_label("TQHLPRECLPENLGHYVKIDLATW [G15H]")
"Criterion not met"
>>> answer_label("TQHLPRECLPETLGGYVKIDLATW [N12T]")
"Criterion not met"
>>> answer_label("TQHLPRECLPENLGGYVKITLATW [D20T]")
"Criterion met"
>>> answer_label("TQHLPRECLPENLGGYVKIDLNTW [A22N]")
"Criterion met"
>>> answer_label("TQHLPRECLPENLGGDVKIDLATW [Y16D]")
"Criterion met"
>>> answer_label("TQHLPRECLPENLGGYVKIDLDTW [A22D]")
"Criterion met"
>>> answer_label("TQHLPRECLPENDGGYVKIDLATW [L13D]")
"Criterion met"
>>> answer_label("TQHLPRECVPENLGGYVKIDLATW [L9V]")
"Criterion not met"
>>> answer_label("TQHLIRECLPENLGGYVKIDLATW [P5I]")
"Criterion met"
>>> answer_label("TQHLPRECLPENLGGYVKIDLATR [W24R]")
"Criterion met"
>>> answer_label("TQHLPEECLPENLGGYVKIDLATW [R6E]")
"Criterion met"
>>> answer_label("TSHLPRECLPENLGGYVKIDLATW [Q2S]")
"Criterion not met"
>>> answer_label("TQHLPREYLPENLGGYVKIDLATW [C8Y]")
"Criterion met"
>>> answer_label("TQDLPRECLPENLGGYVKIDLATW [H3D]")
"Criterion met"
